- assay protocol: Solubility of Compound A in solvents at 24° C. ± 3° C., 24 h
- Assay type: physicochemical
- stated conditions: organic solvent or mixture, thermodynamic from solid, Ethyl acetate, read-out: Solubility, Conc. (mg/mL), 24 h
metric: solubility at 24 h (mg/mL)

>>> value("N#Cc1ccc(O[C@H]2CC[C@H](NC(=O)c3ccc(N4CCC(CN5CCN(c6cc7c(cc6F)C(=O)N(C6CCC(=O)NC6=O)C7=O)CC5)CC4)nn3)CC2)cc1Cl (stereo partly shown) [Compound A]")
0.2

###

- assay protocol: pH-Solubility Profile in buffers and simulated intestinal fluids
- Format: physicochemical
- stated conditions: aqueous buffer; pH 6.5 200 mM citrate buffer; pH of solution 6.5; read-out: pH-Solubility Profile, Concentration
metric: solubility (µg/mL)

>>> value("N#Cc1ccc(O[C@H]2CC[C@H](NC(=O)c3ccc(N4CCC(CN5CCN(c6cc7c(cc6F)C(=O)N(C6CCC(=O)NC6=O)C7=O)CC5)CC4)nn3)CC2)cc1Cl (stereo partly shown)")
0.3

###

- assay protocol: Solubility of Compound A in solvents at 24° C. ± 3° C., 24 h
- Assay type: physicochemical
- stated conditions: organic solvent or mixture, thermodynamic from solid, Dichloromethane, read-out: Solubility, Conc. (mg/mL), 24 h
metric: solubility at 24 h (mg/mL)

>>> value("N#Cc1ccc(O[C@H]2CC[C@H](NC(=O)c3ccc(N4CCC(CN5CCN(c6cc7c(cc6F)C(=O)N(C6CCC(=O)NC6=O)C7=O)CC5)CC4)nn3)CC2)cc1Cl (stereo partly shown)")
25.1

###

- assay protocol: pH-Solubility Profile in buffers and simulated intestinal fluids
- Type: physicochemical
- stated conditions: pH 6.5, fassif; Fasted state simulated intestinal fluid; pH of solution 6.5; read-out: pH-Solubility Profile, Concentration
metric: solubility (µg/mL)

>>> value("N#Cc1ccc(O[C@H]2CC[C@H](NC(=O)c3ccc(N4CCC(CN5CCN(c6cc7c(cc6F)C(=O)N(C6CCC(=O)NC6=O)C7=O)CC5)CC4)nn3)CC2)cc1Cl (stereo partly shown)")
1

###

- assay protocol: pH-Solubility Profile in buffers and simulated intestinal fluids
- Type: physicochemical
- stated conditions: aqueous buffer; pH 5 200 mM citrate buffer; pH of solution 5.0; read-out: pH-Solubility Profile, Concentration
metric: solubility (µg/mL)

>>> value("N#Cc1ccc(O[C@H]2CC[C@H](NC(=O)c3ccc(N4CCC(CN5CCN(c6cc7c(cc6F)C(=O)N(C6CCC(=O)NC6=O)C7=O)CC5)CC4)nn3)CC2)cc1Cl (stereo partly shown)")
0.5

###

- assay protocol: pH-Solubility Profile in buffers and simulated intestinal fluids
- Assay type: physicochemical
- stated conditions: pH 5, fessif; Fed state simulated intestinal fluid; pH of solution 5.0; read-out: pH-Solubility Profile, Concentration
metric: solubility (µg/mL)

>>> value("N#Cc1ccc(O[C@H]2CC[C@H](NC(=O)c3ccc(N4CCC(CN5CCN(c6cc7c(cc6F)C(=O)N(C6CCC(=O)NC6=O)C7=O)CC5)CC4)nn3)CC2)cc1Cl (stereo partly shown)")
22

###

- assay protocol: Solubility of Compound A in solvents at 24° C. ± 3° C., 24 h
- Format: physicochemical
- stated conditions: organic solvent or mixture, thermodynamic from solid, Propylene glycol, read-out: Solubility, Conc. (mg/mL), 24 h
- Method: This batch was prepared for use in the 28-day good laboratory practice (GLP) toxicology studies using the same synthetic scheme and processing employed in preparation of active pharmaceutical ingredient (API) to be used in the clinical drug product.
metric: solubility at 24 h (mg/mL)

>>> value("N#Cc1ccc(O[C@H]2CC[C@H](NC(=O)c3ccc(N4CCC(CN5CCN(c6cc7c(cc6F)C(=O)N(C6CCC(=O)NC6=O)C7=O)CC5)CC4)nn3)CC2)cc1Cl (stereo partly shown)")
0.75

###

- assay protocol: pH-Solubility Profile in buffers and simulated intestinal fluids
- Format: physicochemical
- stated conditions: aqueous buffer; pH 3 200 mM citrate buffer; pH of solution 3.0; read-out: pH-Solubility Profile, Concentration
metric: solubility (mg/mL)

>>> value("N#Cc1ccc(O[C@H]2CC[C@H](NC(=O)c3ccc(N4CCC(CN5CCN(c6cc7c(cc6F)C(=O)N(C6CCC(=O)NC6=O)C7=O)CC5)CC4)nn3)CC2)cc1Cl (stereo partly shown)")
0.015

###

- assay protocol: Solubility of Compound A in solvents at 24° C. ± 3° C., 24 h
- Format: physicochemical
- stated conditions: organic solvent or mixture, thermodynamic from solid, Dichloromethane/methanol, read-out: Solubility, Conc. (mg/mL), 24 h
metric: solubility at 24 h (mg/mL)

>>> value("N#Cc1ccc(O[C@H]2CC[C@H](NC(=O)c3ccc(N4CCC(CN5CCN(c6cc7c(cc6F)C(=O)N(C6CCC(=O)NC6=O)C7=O)CC5)CC4)nn3)CC2)cc1Cl (stereo partly shown) [Compound A]")
100

###

- assay protocol: Solubility of Compound A in solvents at 24° C. ± 3° C., 24 h
- Type: physicochemical
- stated conditions: organic solvent or mixture, thermodynamic from solid, Methanol, read-out: Solubility, Conc. (mg/mL), 24 h
metric: solubility at 24 h (mg/mL)

>>> value("N#Cc1ccc(O[C@H]2CC[C@H](NC(=O)c3ccc(N4CCC(CN5CCN(c6cc7c(cc6F)C(=O)N(C6CCC(=O)NC6=O)C7=O)CC5)CC4)nn3)CC2)cc1Cl (stereo partly shown)")
0.29

###

- assay protocol: Solubility in pH 6.5 simulated intestinal fluid (SIF)
- Format: physicochemical
- stated conditions: fassif, thermodynamic from solid; pH 6.5 simulated intestinal fluid (SIF); read-out: crystalline solid's solubility
metric: solubility (µg/mL)

>>> value("N#Cc1ccc(O[C@H]2CC[C@H](NC(=O)c3ccc(N4CCC(CN5CCN(c6cc7c(cc6F)C(=O)N(C6CCC(=O)NC6=O)C7=O)CC5)CC4)nn3)CC2)cc1Cl (stereo partly shown) [Compound A]")
1.2

###

- assay protocol: Solubility of Compound A in solvents at 24° C. ± 3° C., 24 h
- Assay type: physicochemical
- stated conditions: organic solvent or mixture, thermodynamic from solid, Ethanol, read-out: Solubility, Conc. (mg/mL), 24 h
metric: solubility at 24 h (mg/mL)

>>> value("N#Cc1ccc(O[C@H]2CC[C@H](NC(=O)c3ccc(N4CCC(CN5CCN(c6cc7c(cc6F)C(=O)N(C6CCC(=O)NC6=O)C7=O)CC5)CC4)nn3)CC2)cc1Cl (stereo partly shown)")
0.08

###

- assay protocol: Rat pharmacokinetic studies with solutions and spray-dried dispersions
- stated conditions: male, rat, in vivo, po, 150 mg/kg
metric: AUC (ng·h/mL)

>>> value("N#Cc1ccc(O[C@H]2CC[C@H](NC(=O)c3ccc(N4CCC(CN5CCN(c6cc7c(cc6F)C(=O)N(C6CCC(=O)NC6=O)C7=O)CC5)CC4)nn3)CC2)cc1Cl (stereo partly shown) [Spray-Dried Amorphous Compound A]")
19400
